pEC50 values by entry
System: SARS-CoV-2 B.1.1.7 lineage
Test: microbe, parasite or virus in culture
Assay type: cell-based
Details: Severe acute respiratory syndrome coronavirus 2, 96 h; read-out: A549-dual_ACE2_TMPRSS2 (EC50)
pEC50: −log10 of the molar value.
measurement_name: pEC50

COc1cccc2cncc([C@@H](C#N)NC(=O)[C@@H]3[C@@H]4[C@H](CN3C(=O)[C@@H](NC(=O)C(F)(F)F)C(C)(C)C)[C@H]3C[C@@H]4[C@H](F)C3)c12	> 7.00
CC(C)(C)[C@H](NC(=O)C(F)(F)F)C(=O)N1C[C@@H]2[C@H]3C[C@@H]([C@@H]2[C@H]1C(=O)NC(C#N)c1cncc2ccccc12)[C@H](F)C3 (stereo partly shown)	> 7.00
COc1cccc2cncc(C(C#N)NC(=O)[C@@H]3[C@@H]4[C@H](CN3C(=O)[C@@H](NC(=O)C(F)(F)F)C(C)(C)C)[C@H]3C[C@@H]4[C@H](F)C3)c12 (stereo partly shown)	> 7.00
CC(C)(C)[C@H](NC(=O)C(F)(F)F)C(=O)N1C[C@@H]2[C@H]3C[C@@H]([C@@H]2[C@H]1C(=O)NC1(C#N)CCCc2ccncc21)[C@H](F)C3 (stereo partly shown)	≤ 6.00
CC(C)(C)[C@H](NC(=O)C(F)(F)F)C(=O)N1C[C@H]2[C@@H]([C@H]1C(=O)NC(C#N)c1cnc3ccccn13)[C@H]1C=C[C@@H]2C1 (stereo partly shown)	6.00 to 7.00
CC(C)(C)[C@H](NC(=O)C(F)(F)F)C(=O)N1C[C@H]2[C@@H]([C@H]1C(=O)NC(C#N)c1cccc3ccccc13)[C@H]1C=C[C@@H]2C1 (stereo partly shown)	≤ 6.00
N#CC(NC(=O)[C@@H]1[C@@H]2[C@H](CN1C(=O)c1cc3c(F)cc(F)cc3[nH]1)[C@@H]1C=C[C@H]2C1)c1cncc2ccccc12 (stereo partly shown)	6.00 to 7.00
CC(C)(C)[C@H](NC(=O)C(F)(F)F)C(=O)N1C[C@@H]2[C@H]3C[C@@H]([C@@H]2[C@H]1C(=O)NC(C#N)c1cncc2cnccc12)[C@H](F)C3 (stereo partly shown)	6.00 to 7.00
Cc1ncc2ccccc2c1C(C#N)NC(=O)[C@@H]1[C@@H]2[C@H](CN1C(=O)[C@@H](NC(=O)C(F)(F)F)C(C)(C)C)[C@@H]1C=C[C@H]2C1 (stereo partly shown)	≤ 6.00
N#CC(NC(=O)[C@@H]1[C@@H]2[C@H](CN1C(=O)[C@H](CC1CC1)NC(=O)C(F)(F)F)[C@H]1C[C@@H]2[C@H](F)C1)c1cnn2ccccc12 (stereo partly shown)	6.00 to 7.00

---

Biological target: SARS-Cov-2 3CLpro (Severe acute respiratory syndrome coronavirus 2, UniProt P0DTD1)
Construct: 3CLpro was added using a Multidrop Combi
Experiment: SARS-Cov-2 3CLpro protease assay (SAMDI-MS)
Format: biochemical
Details: 30 mins preincubation, duplex peptide substrates; read-out: SARS-Cov-2 (3CLpro IC50)
# IC50 per record follows
measurement_name: IC50

CC(C)(C)[C@H](NC(=O)C(F)(F)F)C(=O)N1C[C@H]2[C@@H]([C@H]1C(=O)NC1(C#N)CCc3ccncc31)[C@H]1C=C[C@@H]2C1 (some centres unmarked)	200 to 2000 nM
COc1cccn2ncc(C(C#N)NC(=O)[C@@H]3[C@@H]4[C@H](CN3C(=O)[C@@H](NC(=O)C(F)(F)F)C(C)(C)C)[C@H]3C[C@@H]4[C@H](F)C3)c12 (some centres unmarked)	< 20 nM
CC(C)(C)[C@H](NC(=O)C(F)(F)F)C(=O)N1C[C@H]2[C@@H]([C@H]1C(=O)NC(C#N)c1cccc3ccccc13)[C@H]1C=C[C@@H]2C1 (some centres unmarked)	200 to 2000 nM
COc1cccc2cncc(C(C#N)NC(=O)[C@@H]3[C@@H](c4ccccc4)CCN3C(=O)[C@@H](NC(=O)C(F)(F)F)C(C)(C)C)c12 (some centres unmarked)	20 to 200 nM
COc1cccc2cncc(C(C#N)NC(=O)[C@@H]3[C@@H]4[C@H](CN3C(=O)[C@@H](NC(=O)C(F)(F)F)C(C)(C)C)[C@H]3C[C@@H]4[C@H](F)C3)c12 (some centres unmarked)	< 20 nM

---

Biological target: SARS-Cov-2 3CLpro (Severe acute respiratory syndrome coronavirus 2)
Construct: 3CLpro was added using a Multidrop Combi
Assay: SARS-Cov-2 3CLpro protease assay (SAMDI-MS)
Format: biochemical
Conditions: 30 mins preincubation, duplex peptide substrates; read-out: SARS-Cov-2 (3CLpro IC50)
measurement_name: IC50

CC(C)(C)[C@H](NC(=O)C(F)(F)F)C(=O)N1C[C@H]2[C@@H]([C@H]1C(=O)NC(C#N)c1cnc3ccccc3c1)[C@H]1C=C[C@@H]2C1 (stereo partly shown) [Compound 15]	< 20 nM
CC(C)(C)[C@H](NC(=O)C(F)(F)F)C(=O)N1C[C@@H]2[C@H]3C[C@@H]([C@@H]2[C@H]1C(=O)NC(C#N)c1cncc2cccnc12)[C@H](F)C3 (stereo partly shown) [Compound 9]	< 20 nM
COc1cccc2cncc([C@H](C#N)NC(=O)[C@@H]3[C@@H]4[C@H](CN3C(=O)[C@@H](NC(=O)C(F)(F)F)C(C)(C)C)[C@H]3C[C@@H]4[C@H](F)C3)c12 [Compound 29]	20 to 200 nM
CC(C)(C)[C@H](NC(=O)C(F)(F)F)C(=O)N1C[C@@H]2[C@H]3C[C@@H]([C@@H]2[C@H]1C(=O)NC1(C#N)CCCc2ccncc21)[C@H](F)C3 (stereo partly shown) [Compound 31]	2000 to 20000 nM

---

Tested on: SARS-CoV-2 B.1.1.7 lineage
Experiment: microbe, parasite or virus in culture
Type: cell-based
Details: Severe acute respiratory syndrome coronavirus 2, 96 h; read-out: A549-dual_ACE2_TMPRSS2 (EC50)
measurement_name: EC50

CC(C)(C)[C@H](NC(=O)C(F)(F)F)C(=O)N1C[C@@H]2[C@H]3C[C@@H]([C@@H]2[C@H]1C(=O)NC(C#N)c1cnn2ccccc12)[C@H](F)C3 (some centres unmarked)	100 to 1000 nM
CC(C)(C)[C@H](NC(=O)C(F)(F)F)C(=O)N1C[C@@H]2[C@@H]3C[C@H]([C@@H]2[C@H]1C(=O)NC(C#N)c1cncc(-c2ccccc2)c1)[C@H](F)C3 (some centres unmarked)	100 to 1000 nM
CC(C)(C)[C@H](NC(=O)C(F)(F)F)C(=O)N1C[C@@H]2[C@H]3C[C@@H]([C@@H]2[C@H]1C(=O)NC(C#N)c1cncc2c1OCCO2)[C@H](F)C3 (some centres unmarked)	≥ 1000 nM
Cn1cc(C(C#N)NC(=O)[C@@H]2[C@@H]3[C@H](CN2C(=O)[C@@H](NC(=O)C(F)(F)F)C(C)(C)C)[C@@H]2C=C[C@H]3C2)cn1 (some centres unmarked)	100 to 1000 nM
CC(C)(C)[C@H](NC(=O)C(F)(F)F)C(=O)N1C[C@H]2[C@@H]([C@H]1C(=O)NC(C#N)c1cncc3ccccc13)C2(C)C (some centres unmarked)	< 100 nM

---

Assay: Cytotoxicity in HeLa cells without OC43 virus
Format: cell-based
Settings: human, HeLa cells (uninfected), in parallel
measurement_name: CC50 at 6 days

CC(C)(C)[C@H](NC(=O)C(F)(F)F)C(=O)N1C[C@@H]2[C@H]3C[C@@H]([C@@H]2[C@H]1C(=O)NC(C#N)c1cnn2cc(F)ccc12)[C@H](F)C3 (stereo partly drawn)	≥ 10 µM
CC(C)(C)[C@H](NC(=O)C(F)(F)F)C(=O)N1C[C@H]2[C@@H]([C@H]1C(=O)NC(C#N)c1nc[nH]n1)[C@H]1C=C[C@@H]2C1 (stereo partly drawn)	≥ 10 µM
CC(C)(C)[C@H](NC(=O)C(F)(F)F)C(=O)N1C[C@H]2[C@@H]([C@H]1C(=O)NC(C#N)c1cnc3ccccn13)[C@H]1C=C[C@@H]2C1 (stereo partly drawn)	≥ 10 µM

---

Biological target: SARS-Cov-2 3CLpro (Severe acute respiratory syndrome coronavirus 2)
Construct: 3CLpro was added using a Multidrop Combi
Test: SARS-Cov-2 3CLpro protease assay (SAMDI-MS)
Type: biochemical
Conditions: 30 mins preincubation, duplex peptide substrates; read-out: SARS-Cov-2 (3CLpro IC50)
IC50 reference
measurement_name: IC50

CC(C)(C)[C@H](NC(=O)C(F)(F)F)C(=O)N1C[C@@H]2[C@H]3C[C@@H]([C@@H]2[C@H]1C(=O)NC(C#N)c1cncc2cnccc12)[C@H](F)C3 (stereo partly drawn)	< 20 nM
CC(C)(C)[C@H](NC(=O)C(F)(F)F)C(=O)N1C[C@H]2[C@@H]([C@H]1C(=O)NC(C#N)c1nc[nH]n1)[C@H]1C=C[C@@H]2C1 (stereo partly drawn)	200 to 2000 nM
Cc1ncc2ccccc2c1C(C#N)NC(=O)[C@@H]1[C@@H]2[C@H](CN1C(=O)[C@@H](NC(=O)C(F)(F)F)C(C)(C)C)[C@@H]1C=C[C@H]2C1 (stereo partly drawn)	2000 to 20000 nM
Cn1cc(C(C#N)NC(=O)[C@@H]2[C@@H]3[C@H](CN2C(=O)[C@@H](NC(=O)C(F)(F)F)C(C)(C)C)[C@@H]2C=C[C@H]3C2)cn1 (stereo partly drawn)	20 to 200 nM
N#CC(NC(=O)[C@@H]1[C@@H]2[C@H](CN1C(=O)c1cc3c(F)cc(F)cc3[nH]1)[C@@H]1C=C[C@H]2C1)c1cncc2ccccc12 (stereo partly drawn)	20 to 200 nM
CC(C)(C)[C@H](NC(=O)C(F)(F)F)C(=O)N1CC2(CC2)C[C@H]1C(=O)NC(C#N)c1cnn2ccccc12 (stereo partly drawn)	20 to 200 nM
